Here, each record is paired with measured pEC50 data.
System: recombinant human nicotinic acid receptor (NAR) (Homo sapiens)
Experiment: Nicotinic Acid Receptor Assay: inhibition of forskolin-stimulated cAMP accumulation in CHO cells (MesoScale Discovery cAMP kit)
Format: cell-based
Experimental setup: CHO cells expressing recombinant human NAR; forskolin-stimulated cAMP; read-out: NA EC50 camp
pEC50: −log10 of the molar value.

Give recorded pEC50. CCCC(C)c1cc(=O)oc2[nH]c(=O)[nH]c(=O)c12 (stereo not drawn)
6.00 to 7.00

Give recorded pEC50. CCCCc1cc(=O)oc2nc(OCC#CC(C)O)[nH]c(=O)c12 (stereo not drawn)
7.00 to 12.00

Give recorded pEC50. "CCCCc1cc(=O)oc2[nH]c(=O)n(CC3CC3)c(=O)c12"
6.00 to 7.00

====

System: recombinant human nicotinic acid receptor (NAR) (Homo sapiens)
Experiment: Nicotinic Acid Receptor Assay: inhibition of forskolin-stimulated cAMP accumulation in CHO cells (MesoScale Discovery cAMP kit)
Format: cell-based
Experimental setup: CHO cells expressing recombinant human NAR; forskolin-stimulated cAMP; read-out: NA EC50 camp
pEC50: −log10 of the molar value.
Measurement type: pEC50

Reference set (7 entries):
[
  {
    "Structure smiles string": "CCc1cc(=O)oc2nc(OCc3cc(F)cc(F)c3)[nH]c(=O)c12",
    "pEC50": "< 6.00"
  },
  {
    "Structure smiles string": "CCc1cc(=O)oc2nc(OCCS(C)(=O)=O)[nH]c(=O)c12",
    "pEC50": "< 6.00"
  },
  {
    "Structure smiles string": "CCc1cc(=O)oc2nc(OCc3ccccc3-c3cccc(CO)c3)[nH]c(=O)c12",
    "pEC50": "6.00 to 7.00"
  },
  {
    "Structure smiles string": "CC(C)CCc1cc(=O)oc2[nH]c(=O)n(CC3CC3)c(=O)c12",
    "pEC50": "< 6.00"
  },
  {
    "Structure smiles string": "CCc1cc(=O)oc2nc(OCc3cccc(-c4cccnc4)c3)[nH]c(=O)c12",
    "pEC50": "6.00 to 7.00"
  },
  {
    "Structure smiles string": "O=c1cc(CCC2CC2)c2c(=O)[nH]c(=O)n(C3CCC3)c2o1",
    "pEC50": "6.00 to 7.00"
  },
  {
    "Structure smiles string": "CCc1cc(=O)oc2nc(OCc3cccc(-c4ccccc4F)c3)[nH]c(=O)c12",
    "pEC50": "6.00 to 7.00"
  }
]

Next up:
Give recorded pEC50. "CC(C)(C)CCCc1cc(=O)oc2[nH]c(=O)n(C3CCC3)c(=O)c12"
6.00 to 7.00

====

System: recombinant human nicotinic acid receptor (NAR) (Homo sapiens, UniProt Q8TDS4)
Sequence (Q8TDS4 whole entry): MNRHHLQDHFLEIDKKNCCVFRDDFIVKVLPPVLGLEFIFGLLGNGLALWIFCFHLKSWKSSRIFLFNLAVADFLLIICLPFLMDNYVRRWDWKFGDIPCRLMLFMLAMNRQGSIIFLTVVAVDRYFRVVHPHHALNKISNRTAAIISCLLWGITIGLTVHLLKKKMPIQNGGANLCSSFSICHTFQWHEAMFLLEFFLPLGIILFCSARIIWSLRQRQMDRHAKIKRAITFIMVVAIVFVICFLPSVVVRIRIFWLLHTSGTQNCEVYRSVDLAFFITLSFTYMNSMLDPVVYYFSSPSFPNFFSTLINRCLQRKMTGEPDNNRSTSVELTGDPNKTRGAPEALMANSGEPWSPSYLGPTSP
Experiment: Nicotinic Acid Receptor Assay: inhibition of forskolin-stimulated cAMP accumulation in CHO cells (MesoScale Discovery cAMP kit)
Assay type: cell-based
Experimental setup: inhibition of forskolin-stimulated cAMP accumulation, CHO cells expressing recombinant human NAR; read-out: NA EC50 camp
Method: The nicotinic acid receptor agonist activity of the inventive compounds was determined by following the inhibition of forskolin-stimulated cAMP accumulation in cells using the MesoScale Discovery cAMP detection kit following the manufacture's protocol. […] Prior to reading, 10 μL of read buffer was added to each well, and the plate was read in a Sector 6000 plate imager. […]
Measurement type: EC50 (nM)

Reference set (4 entries):
[
  {
    "Compound": "O=c1nc(OCF)c2c(CCCC3CC3)cc(=O)oc2[nH]1 [Compound 789]",
    "EC50, nM": 88
  },
  {
    "Compound": "CCCCc1cc(=O)oc2[nH]c(=O)n(CC(F)F)c(=O)c12 [Compound 821]",
    "EC50, nM": 142
  },
  {
    "Compound": "CCCCC#CCOc1nc2oc(=O)cc(CCCC3CC3)c2c(=O)[nH]1 [Compound 719]",
    "EC50, nM": 152
  },
  {
    "Compound": "O=c1cc(CCCC2CC2)c2c(=O)[nH]c(CF)nc2o1 [Compound 741]",
    "EC50, nM": 123
  }
]

a = CCn1c(=O)[nH]c2oc(=O)cc(CCCC3CC3)c2c1=O [Compound 782]
b = CCC#CC(C)Oc1nc2oc(=O)cc(CCCC3CC3)c2c(=O)[nH]1 (stereo not drawn) [Compound 718]
Select the item whose EC50 value is smaller, choosing between a and b . Your answer should be the label attached to the chosen record.
a
(a: 94 nM, b: 162 nM)

====

System: recombinant human nicotinic acid receptor (NAR) (Homo sapiens, UniProt Q8TDS4)
Experiment: Nicotinic Acid Receptor Assay: inhibition of forskolin-stimulated cAMP accumulation in CHO cells (MesoScale Discovery cAMP kit)
Assay type: cell-based
Experimental setup: CHO cells expressing recombinant human NAR; forskolin-stimulated cAMP; read-out: NA EC50 camp
pEC50: −log10 of the molar value.
Here, each record is paired with measured pEC50 data.

Reference set (5 entries):
[
  {
    "Molecule": "CCc1cc(=O)oc2nc(OCc3ccc(-c4ccccc4)cc3)[nH]c(=O)c12",
    "Value reported": "< 6.00"
  },
  {
    "Molecule": "CCCCc1c(-c2ccc(Cl)cc2)c(=O)oc2[nH]c(=O)[nH]c(=O)c12",
    "Value reported": "< 6.00"
  },
  {
    "Molecule": "CCc1cc(=O)oc2nc(OCc3nn(-c4ccccc4)nc3C)[nH]c(=O)c12",
    "Value reported": "6.00 to 7.00"
  },
  {
    "Molecule": "O=c1cc(CCCCc2cccs2)c2c(=O)n(C3CCC3)c(=O)[nH]c2o1",
    "Value reported": "< 6.00"
  },
  {
    "Molecule": "CC(C)CCc1cc(=O)oc2[nH]c(=O)n(C3CCC3)c(=O)c12",
    "Value reported": "7.00 to 12.00"
  }
]

Report pEC50 under test system recombinant human nicotinic acid receptor (NAR) (Homo sapiens, UniProt Q8TDS4) for CCc1cc(=O)oc2nc(OCC#CC(O)CC)[nH]c(=O)c12 (centres unmarked) .
7.00 to 12.00

Report pEC50 under test system recombinant human nicotinic acid receptor (NAR) (Homo sapiens, UniProt Q8TDS4) for CCC(C)CCc1cc(=O)oc2[nH]c(=O)[nH]c(=O)c12 (centres unmarked) .
7.00 to 12.00

====

System: recombinant human nicotinic acid receptor (NAR) (Homo sapiens, UniProt Q8TDS4)
Experiment: Nicotinic Acid Receptor Assay: inhibition of forskolin-stimulated cAMP accumulation in CHO cells (MesoScale Discovery cAMP kit)
Type: cell-based
Experimental setup: inhibition of forskolin-stimulated cAMP accumulation, CHO cells expressing recombinant human NAR; read-out: NA EC50 camp
pEC50: −log10 of the molar value.
Measurement type: pEC50

Reference set (3 entries):
[
  {
    "Molecule": "O=c1cc(CCC2CCCC2)c2c(=O)[nH]c(C(F)(F)F)nc2o1",
    "Measurement type": "pEC50",
    "Value reported": 5.11
  },
  {
    "Molecule": "O=c1[nH]c(=O)c2c(CCC3CCCCC3)cc(=O)oc2[nH]1",
    "Measurement type": "pEC50",
    "Value reported": 7.11
  },
  {
    "Molecule": "CCCCc1cc(=O)oc2[nH]c(=O)n(CCF)c(=O)c12",
    "Measurement type": "pEC50",
    "Value reported": 6.51
  }
]

1 = CCOC(=O)NOc1nc2oc(=O)cc(CCC3CCC3)c2c(=O)[nH]1
2 = O=c1cc(CCC2CCCC2)c2c(=O)n(C3CCC3)c(=O)[nH]c2o1
Endpoint returns whichever of 1 and 2 has the numerically higher pEC50. Your answer should be the label attached to the chosen record.
2
(2: 7.89, 1: 7.32)

====

Here, each record is paired with measured pEC50 data.
System: recombinant human nicotinic acid receptor (NAR) (Homo sapiens)
Experiment: Nicotinic Acid Receptor Assay: inhibition of forskolin-stimulated cAMP accumulation in CHO cells (MesoScale Discovery cAMP kit)
Type: cell-based
Experimental setup: CHO cells expressing recombinant human NAR; forskolin-stimulated cAMP; read-out: NA EC50 camp
pEC50: −log10 of the molar value.

[
  {
    "Molecule": "CCc1cc(=O)oc2nc(OCc3cc4c(C)nn(C)c4s3)[nH]c(=O)c12 [Compound 646]",
    "Value reported": "< 6.00"
  }
]

Give recorded pEC50. Cc1cc(=O)oc2[nH]c(=O)n(C3CCC3)c(=O)c12 [Compound 252]
7.00 to 12.00

Give recorded pEC50. CCc1cc(=O)oc2nc(OCc3ccc(-c4ccccn4)s3)[nH]c(=O)c12 [Compound 648]
6.00 to 7.00

Give recorded pEC50. CCc1cc(=O)oc2nc(OCc3cccc(-n4cccc4)c3)[nH]c(=O)c12 [Compound 612]
< 6.00

Give recorded pEC50. CCc1cc(=O)oc2nc(OCc3cnc(Br)s3)[nH]c(=O)c12 [Compound 608]
6.00 to 7.00

Give recorded pEC50. CCc1cc(=O)oc2nc(OCc3cc(Cl)ccc3OC)[nH]c(=O)c12 [Compound 507]
7.00 to 12.00

Give recorded pEC50. O=c1cc(CCCCC2CC2)c2c(=O)n(C3CCC3)c(=O)[nH]c2o1 [Compound 200]
6.00 to 7.00

Give recorded pEC50. CCc1cc(=O)oc2nc(OCc3ccc(-c4cccc(C(F)(F)F)c4)cc3F)[nH]c(=O)c12 [Compound 573]
6.00 to 7.00

Give recorded pEC50. O=c1[nH]c(=O)c2c(CCCOCC3CC3)cc(=O)oc2[nH]1 [Compound 273]
6.00 to 7.00

Give recorded pEC50. O=c1[nH]c(=O)c2c(C3CC3)cc(=O)oc2[nH]1 [Compound 283]
6.00 to 7.00

Give recorded pEC50. CCc1cc(=O)oc2nc(OCC#CCCOC)[nH]c(=O)c12 [Compound 664]
6.00 to 7.00

Give recorded pEC50. CCn1c(=O)[nH]c(=O)c2c(CCC3CC3)cc(=O)oc21 [Compound 277]
< 6.00

Give recorded pEC50. CCc1cc(=O)oc2nc(OCc3ccccc3-c3cccc(C(N)=O)c3)[nH]c(=O)c12 [Compound 585]
6.00 to 7.00

Give recorded pEC50. CCc1cc(=O)oc2nc(OCc3ccc(-c4ccccc4)cc3F)[nH]c(=O)c12 [Compound 518]
6.00 to 7.00

Give recorded pEC50. CCCC/C=C/c1c(CC)c2c(=O)[nH]c(=O)[nH]c2oc1=O [Compound 214]
< 6.00

Give recorded pEC50. COc1ccc(-c2ccc(Cc3cc(=O)oc4[nH]c(=O)[nH]c(=O)c34)cc2)cc1 [Compound 207]
< 6.00

Give recorded pEC50. CCc1cc(=O)oc2nc(OCC#Cc3ccccc3Cl)[nH]c(=O)c12 [Compound 623]
7.00 to 12.00

Give recorded pEC50. CCc1cc(=O)oc2nc(OCc3cccc(-c4cccc5cccnc45)c3)[nH]c(=O)c12 [Compound 560]
< 6.00

Give recorded pEC50. CCc1cc(=O)oc2nc(OCc3ccncc3F)[nH]c(=O)c12 [Compound 625]
6.00 to 7.00

Give recorded pEC50. CCc1noc(C)c1COc1nc2oc(=O)cc(CC)c2c(=O)[nH]1 [Compound 666]
7.00 to 12.00
